Provenance of the data: the supplement of paper PMC8728848

Target: Neu5Ac(a2-3)Gal(b1-4)GlcNAc(b1-3)Gal(b1-4)GlcNAc(b1-2)Man(a1-3)[Neu5Ac(a2-3)Gal(b1-4)GlcNAc(b1-3)Gal(b1-4)GlcNAc(b1-2)Man(a1-6)]Man(b1-4)GlcNAc(b1-4)GlcNAc
Experiment: glycan array binding signal (z-score within array); higher = stronger binding
Details: glycan notation: IUPAC condensed, linker removed
Many of the other results were omitted from the sample, so the strongest signals are more common in it than they were.
glycan array binding signal (z-score) values for the binders below.
The response must contain the number and no unit.

binder	glycan array binding signal (z-score)
SJCP1084 (Schistosoma japonicum) (protein) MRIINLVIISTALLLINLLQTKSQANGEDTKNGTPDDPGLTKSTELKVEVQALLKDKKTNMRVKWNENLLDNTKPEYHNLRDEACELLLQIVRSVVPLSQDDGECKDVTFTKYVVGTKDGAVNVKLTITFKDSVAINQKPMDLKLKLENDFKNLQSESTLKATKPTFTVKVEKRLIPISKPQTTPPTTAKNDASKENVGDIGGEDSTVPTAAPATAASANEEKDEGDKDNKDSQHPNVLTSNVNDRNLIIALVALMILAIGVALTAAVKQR	-0.701

Pending binder:
I would be grateful if you could share the reported glycan array binding signal (z-score) for FliC (Clostridium difficile) (protein) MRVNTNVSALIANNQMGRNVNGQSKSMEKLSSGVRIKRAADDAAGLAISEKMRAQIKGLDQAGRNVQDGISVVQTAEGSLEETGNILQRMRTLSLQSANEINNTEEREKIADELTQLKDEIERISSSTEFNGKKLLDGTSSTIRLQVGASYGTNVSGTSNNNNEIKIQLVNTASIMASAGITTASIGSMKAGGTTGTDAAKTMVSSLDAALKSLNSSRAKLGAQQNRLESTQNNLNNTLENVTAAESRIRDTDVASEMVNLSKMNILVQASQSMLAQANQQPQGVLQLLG .
1.02
